growth overview
Tested on: OVCAR-8 ovarian
Assay: NCI-60 one-dose screen, 48 h (100 = growth as untreated, 0 = no growth, -100 = all killed)
Settings: 10 µM unless noted
Description: Growth inhibition of the OVCAR-8 human tumor cell line is measured as a screen for anti-cancer activity. Cells are grown in 96 well plates and exposed to the test compound for 48 hours. Compounds are tested at a single concentration, which is 10^-5 M for most compounds. The reported endpoint is percent growth (GI% or GIPRCNT), where numbers from 0 - 100% represent growth inhibition, and numbers from -100% - 0 represent cell death. For example, a value of 40 represents 60% growth inhibition. […]
Compounds without any hit were thinned out: in the full panel of roughly 83,000, 20% have a hit. Activity calls are given as the source filed them. Rule for the calls: active = growth percent below 10; inactive = the rest.

Cc1ccc2c(N)c(C(=O)Nc3ccc(OC(F)(F)F)cc3)sc2n1 : 76.2% (inactive)

Recorded growth (molecule `Cn1cc(-c2cc(N)n3nc(-c4cn(C)c5ncccc45)cc3n2)c2cccnc21` ): 61.3% (inactive)

Recorded growth (molecule COc1cc(C2CC(c3cc(OC)c(OC)c(OC)c3)=NN2C(C)=O)ccc1OCc1ccccc1 (centres undefined) ): 46.7% (inactive)

Recorded growth (molecule `N#Cc1c(-c2cccc(Cl)c2Cl)cc(-c2c[nH]c3ccccc23)[nH]c1=O` ): 72.5% (inactive)

Recorded growth (molecule `O=C(NNc1nc2cc(F)ccc2n2c(C(=O)N3CCN(C4CC4)CC3)ccc12)c1ncccn1` ): 22.1% (inactive)

Recorded growth (molecule `COc1ccc(-c2nc3cc(C)ccc3n2CC(=O)N=Nc2c(O)[nH]c3ccccc23)cc1` ): -58.1% (active)

Recorded growth (molecule CCS(=O)(=O)N1CCCC(C(=O)Nc2nc3ccc(NC(=O)c4ccc(F)c(OC)c4F)cc3s2)C1 (centres undefined) ): 57.7% (inactive)

Recorded growth (molecule CC(C)(C)OC(=O)/C=C/c1cccc2c1C(=O)NC(C)(c1cc3cc(Cl)ccc3oc1=O)N2 (centres undefined) ): 39.1% (inactive)

Recorded growth (molecule `N/C(=N\c1nc2ccccc2s1)NC(=O)NCCCCCCO` ): 50.7% (inactive)

Cited source: PubChem BioAssay (NCI)
